target: testosterone (T) production in NCI-H295R cells (Homo sapiens, UniProt P05108); construct: testosterone measured by LC-MS/MS as downstream steroid; test: H295R Steroid Biosynthesis Inhibition Assay - inhibition of testosterone (T) production in NCI-H295R cells; conditions: 48 h, LC-MS/MS, read-out: Inh. of T IC50
pIC50: −log10 of the molar value.
propertyMeasured: pIC50

Look over these answered cases.
NC(=O)[C@H]1CC[C@H](c2cc3oc(CN4Cc5ccccc5C4)cc(=O)c3o2)CC1    ≥ 7.40
O=S1(=O)CCC(c2cnc3cc(CN4Cc5ccccc5C4)ccc3n2)CC1    ≤ 7.00
CS(=O)(=O)N1C[C@@H]2[C@H](C1)[C@H]2c1cc2oc(CN3CCn4cccc4C3)cc(=O)c2o1    7.00 to 7.39
CS(=O)(=O)N1CC2(CC(c3ccc4cc(CN5Cc6ccccc6C5)ccc4n3)C2)C1    ≥ 7.40

// moving on: another record for pIC50
Input: So what's the measured pIC50 for this one? CN(C)C(=O)[C@H]1CC[C@H](c2cc3oc(CN4Cc5ccccc5C4)cc(=O)c3o2)CC1
Output: ≥ 7.40
